Protein target, amino acids: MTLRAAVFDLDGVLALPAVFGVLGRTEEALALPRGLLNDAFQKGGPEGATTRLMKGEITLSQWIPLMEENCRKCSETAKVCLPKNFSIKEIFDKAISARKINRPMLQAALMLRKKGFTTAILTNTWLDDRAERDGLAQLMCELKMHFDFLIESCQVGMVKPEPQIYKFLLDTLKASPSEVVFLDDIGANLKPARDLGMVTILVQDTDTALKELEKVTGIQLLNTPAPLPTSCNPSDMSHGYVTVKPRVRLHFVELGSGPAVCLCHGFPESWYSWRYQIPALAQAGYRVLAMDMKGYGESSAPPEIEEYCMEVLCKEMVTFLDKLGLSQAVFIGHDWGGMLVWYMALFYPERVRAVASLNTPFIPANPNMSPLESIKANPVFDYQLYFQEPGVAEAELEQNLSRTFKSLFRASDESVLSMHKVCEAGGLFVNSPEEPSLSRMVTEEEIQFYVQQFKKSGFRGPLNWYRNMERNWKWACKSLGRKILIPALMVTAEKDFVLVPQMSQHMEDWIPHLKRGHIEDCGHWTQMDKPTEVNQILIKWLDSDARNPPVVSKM
pKi: −log10 of the molar value.

{"COMPOUND": "C=C(C)[C@@H](O)[C@@H](O)C[C@@H](C)C1=C2CC[C@H]3[C@@]4(C)CCC(=O)C(C)(C)[C@@H]4CC[C@]3(C)[C@@]2(C)CC1 [Compound 4, 11-deoxy-25-anhydro alisol E]", "pKi": 4.90}

Origin of values: paper PMC7233170
